System: Mycosphaerella graminicola; Anamorph: Septoria tritici
Experiment Summary: Leaf blotch of wheat (SEPTTR) disease control on wheat seedlings
Assay type: in vivo
Experimental Setup: Zymoseptoria tritici, 72 h; Wheat Leaf Blotch; 3 Day Curative; high volume application, 100 ppm; read-out: Disease Control SEPTTR 3 DC 100 ppm
Description: Technical grades of materials were dissolved in acetone, which were then mixed with nine volumes of water containing 110 ppm Triton X-100. The fungicide solutions were applied onto wheat seedlings using an automated booth sprayer to run-off. […] All fungicides were evaluated using the aforementioned method for their activity vs. all target diseases. […] Percent disease control was calculated using the ratio of disease severity on treated plants relative to untreated plants.
Readout Kind: pest or weed control at 100 ppm

Reference set, count: 5
COc1ccnc(C(=O)N[C@H]2CCC[C@H](Oc3ccccc3)[C@@H](OC(=O)C3CCCC3)[C@H](C)OC2=O)c1O = 0 to 80%
CCCO[C@H]1[C@H](C)OC(=O)[C@@H](NC(=O)c2nccc(OC)c2O)CCC[C@@H]1Oc1cccc(F)c1 = 80 to 100%
CCCO[C@H]1[C@H](C)OC(=O)[C@@H](NC(=O)c2nccc(OC)c2O)CCC[C@@H]1Oc1cc(C)cc(C)c1 = 0 to 80%
CCCO[C@H]1CCC[C@H](NC(=O)c2nccc(OC)c2OC(C)=O)C(=O)O[C@@H](C)[C@@H]1Oc1cccc(Cl)c1 = 80 to 100%
C=C(C)CO[C@H]1CCC[C@H](NC(=O)c2nccc(OC)c2O)C(=O)O[C@@H](C)[C@@H]1OC = 80 to 100%

Name the recorded pest or weed control at 100 ppm for COc1ccnc(C(=O)N[C@H]2CCC[C@H](Oc3ccccc3)[C@@H](OC(=O)C3CC3)[C@H](C)OC2=O)c1OCOC(=O)C(C)C .
80 to 100%

Item under review: CCCO[C@H]1CCC[C@H](NC(=O)c2nccc(OC)c2OCOC(C)=O)C(=O)O[C@@H](C)[C@@H]1Oc1ccc(F)cc1 . Reported pest or weed control at 100 ppm?
80 to 100%

----------
Listing of entries alongside the reported melting point.

// solved cases for melting point follow
COc1ccnc(C(=O)N[C@H]2CCC[C@H](OC3CCCC3)[C@@H](OC3CCCC3)[C@H](C)OC2=O)c1O = 61 to 63 °C
COc1ccnc(C(=O)N[C@H]2CCC[C@H](Oc3ccc(F)cc3)[C@@H](OCC(C)C)[C@H](C)OC2=O)c1OCOC(C)=O = 139 to 141 °C
C[C@@H]1OC(=O)[C@@H](N)CCC[C@H](OC2CCCC2)[C@H]1OC1CCCC1.Cl = 246 to 248 °C
COc1ccc(O[C@H]2CCC[C@H](NC(=O)c3nccc(OC)c3OCOC(C)=O)C(=O)O[C@@H](C)[C@@H]2OCC(C)C)cc1 = 118 to 120 °C
CCCO[C@H]1[C@H](C)OC(=O)[C@@H](N)CCC[C@@H]1OCC(C)C.Cl = 226 to 229 °C
COc1ccnc(C(=O)N[C@H]2CCC[C@H](OCc3ccccc3)[C@@H](Oc3ccccc3)[C@H](C)OC2=O)c1OCOC(C)=O = 49 to 55 °C

What melting point value was documented for this compound, COc1ccnc(C(=O)N[C@H]2CCC[C@H](OCC(C)C)[C@@H](OC(=O)C3CC3)[C@H](C)OC2=O)c1O ?
63 to 66 °C

Need melting point, item COc1ccnc(C(=O)N[C@H]2CCC[C@H](OCC(C)C)[C@@H](OCC(C)C)[C@H](C)OC2=O)c1O
94 to 95 °C
